Values from ChEMBL document CHEMBL1148578

- Test system: Human alphaherpesvirus 3
- assay summary: Antiviral activity against Varicella-Zoster virus 07/1 strain
- Type: functional, organism-based
- condition context: Human alphaherpesvirus 3, 07/1
pEC50: −log10 of the molar value.
metric name: pEC50

[[record]]
sample_smiles = "CCCCC#Cc1cc2cn([C@@H]3O[C@H](CO)[C@@H](O)[C@@H]3O)c(=O)nc2o1"
metric_name = "pEC50"
result = "< 3.84"

[[record]]
sample_smiles = "CCCCCCCCC#Cc1cc2cn([C@H]3C[C@H](O)[C@@H](CO)O3)c(=O)nc2o1"
metric_name = "pEC50"
result = "< 4.89"

[[record]]
sample_smiles = "CCCCC#Cc1cc2cn([C@H]3C[C@H](O)[C@@H](CO)O3)c(=O)nc2o1"
metric_name = "pEC50"
result = "≤ 3.87"


// next entry
**Q:** Look up and state reported pEC50 for `CCCCCCCCCCC#Cc1cc2cn([C@H]3C[C@H](O)[C@@H](CO)O3)c(=O)nc2o1`
**A:** ≤ 5.22
